Entry source: the supplement of paper PMC10307832

# System: NCI-H460
# method-notes: relative viability (nuclei count vs DMSO), 5 days (fraction); higher = more cells survive
# condition-details: first compound 8 µM
observed-property: relative viability

[
  {
    "compound": "O=c1[nH]c2ccccc2n1C1CCN(CCCC(c2ccc(F)cc2)c2ccc(F)cc2)CC1 [Pimozide] + Nc1ncn([C@H]2C[C@H](O)[C@@H](CO)O2)c(=O)n1 [Decitabine] (partner 2 µM)",
    "relative viability": 0.45
  }
]

Then there is this compound:
Query string: What value of measured relative viability is listed for O=c1[nH]c2ccccc2n1C1CCN(CCCC(c2ccc(F)cc2)c2ccc(F)cc2)CC1 [Pimozide] + CC(=O)Nc1cccc(-n2c(=O)n(C3CC3)c(=O)c3c(Nc4ccc(I)cc4F)n(C)c(=O)c(C)c32)c1 [Trametinib] (partner 0.02 µM) ?
Result string: 0.14
